Assay Method Text: AUCinfinity in Sprague-Dawley rat at 2.5 mg/kg, iv measured after 5 to 1440 mins by LC-MS/MS analysis
Format: ADME, organism-based
Design: route intravenous, dose 2.5 mg/kg, time upper 1440 min, time lower 5 min
Details: in vivo, 2.5 mg/kg
Measured Endpoint: AUC(0-inf)

Name the reported AUC(0-inf) value associated with the molecule `COc1cc([C@@H]2c3cc4c(cc3[C@@H](NCC(F)(F)[C@]3(O)O[C@H](CO)[C@@H](O)[C@H](O)[C@H]3O)[C@H]3COC(=O)[C@H]23)OCO4)cc(OC)c1OC`
2210 ng·h/mL

----------
System: HepG2
Assay Method Text: Antiproliferative activity against human HepG2 cells incubated for 48 hrs by MTT assay
Format: functional, cell-based
Details: HepG2, 48 h
Measured Endpoint: pIC50
Kindly note that pIC50 refers to -log10 of the concentration in mol/L and answer with the value alone.

Examples with their reported pIC50 follow.
Compound Structure	pIC50
COc1cc([C@@H]2c3cc4c(cc3[C@@H](O[C@@H]3CC[C@@H](O)[C@@H](C(C)C)O3)[C@H]3COC(=O)[C@H]23)OCO4)cc(OC)c1O	7.38
CC[C@H]1O[C@@H](O[C@@H]2c3cc4c(cc3[C@@H](c3cc(OC)c(O)c(OC)c3)[C@H]3C(=O)OC[C@@H]32)OCO4)CC[C@H]1O	7.38
CCC[C@H]1O[C@@H](O[C@@H]2c3cc4c(cc3[C@@H](c3cc(OC)c(O)c(OC)c3)[C@H]3C(=O)OC[C@@H]32)OCO4)CC[C@H]1O	7.38
COc1cc([C@@H]2c3cc4c(cc3[C@@H](O[C@@H]3CC[C@@H](O)[C@@H](C)O3)[C@H]3COC(=O)[C@H]23)OCO4)cc(OC)c1O	7.38
COc1cc([C@@H]2c3cc4c(cc3[C@@H](OC(=O)CCSC(=S)N/N=C/c3ccccn3)[C@H]3COC(=O)[C@H]23)OCO4)cc(OC)c1O	5.41

Now for the compound whose pIC50 we want.
Which value of pIC50 has been reported for `COc1cc([C@@H]2c3cc4c(cc3[C@@H](O[C@H]3CC[C@@H](O)[C@@H](C)O3)[C@H]3COC(=O)[C@H]23)OCO4)cc(OC)c1O` in the records?
7.38
